biological target: T1, cynomolgus TfR (on MDCK cells) (cynomolgus, UniProt H9EXL1 1-760 (rhesus entry)); test: flow cytometry on MDCK cells engineered to express cynomolgus TfR, on ice, PE-labeled secondary
T1 construct: whole, on cells; also called Cyno MDCK
T1 sequence (chain, as listed by the source): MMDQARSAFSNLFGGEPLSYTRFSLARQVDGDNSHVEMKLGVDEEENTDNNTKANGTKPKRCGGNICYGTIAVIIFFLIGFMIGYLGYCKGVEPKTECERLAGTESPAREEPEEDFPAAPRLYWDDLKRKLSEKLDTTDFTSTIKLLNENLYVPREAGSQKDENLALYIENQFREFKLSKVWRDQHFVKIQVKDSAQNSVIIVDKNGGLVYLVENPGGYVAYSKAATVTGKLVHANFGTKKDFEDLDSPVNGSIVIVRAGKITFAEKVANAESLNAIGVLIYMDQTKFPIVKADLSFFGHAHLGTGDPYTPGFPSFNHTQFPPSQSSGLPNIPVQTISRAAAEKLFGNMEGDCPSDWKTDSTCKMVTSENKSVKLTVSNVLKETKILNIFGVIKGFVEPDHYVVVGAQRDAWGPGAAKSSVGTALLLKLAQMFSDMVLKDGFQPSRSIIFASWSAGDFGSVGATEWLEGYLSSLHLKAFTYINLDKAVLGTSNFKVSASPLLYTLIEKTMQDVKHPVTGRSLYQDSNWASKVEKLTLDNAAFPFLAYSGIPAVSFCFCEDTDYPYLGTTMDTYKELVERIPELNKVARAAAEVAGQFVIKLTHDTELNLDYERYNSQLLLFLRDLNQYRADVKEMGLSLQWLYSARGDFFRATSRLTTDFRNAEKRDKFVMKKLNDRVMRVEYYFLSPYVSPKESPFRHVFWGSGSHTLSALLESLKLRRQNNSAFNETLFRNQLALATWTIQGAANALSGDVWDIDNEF
Documented pEC50 across a set of binders
Entry type: numeric. Quantity: pEC50, the -log10 of concentration in molar units.

Known pEC50 results, listed for orientation:
Binder	pEC50
TBP6 (TBD6 Fab-hIgG4PAA Fc) (antibody, V domains shown, Fab-Fc format, one HC and one LC) VH: EVQLVESGGGLVQPGGSLRLSCAASGFTFRTYWMHWVRQAPGKGLVWVSRINSDGSRTNYADSVKGRFTISRDNAKNTLYLQMNSLRAEDTAVYYCARSSYAFDVWGQGTLVTVSS VL: DIVMTQTPLSLPVTPGEPASISCRSSQSLLDSDDGSTYLDWYLQKPGQSPQLLIYLLSNRASGVPDRFSGSGSGTDFTLKISRVEAEDVGVYYCMQRIEFPLTFGGGTKVEIKR	9.12
TBP1 (TBD1 Fab-hIgG4PAA Fc) (antibody, V domains shown) VH: EVQLVESGGGLVKPGGSLRLSCVASGFTFSSYSMNWVRQAPGKGLEWVSSISRSSSYIYYADSVKGRFTISRDNAKNSLYLQMNSLRAEDTAVYYCAREHGYSNSDAFDIWGQGTLVTVSS VL: DIQMTQSPSAMSASVGDRVTITCRASQGISNYLAWFQQKPGKVPKRLIYAASSLQSGVPSRFSGSGSGTEFTLTISSLQPEDFATYYCLQHNSYPRTFGQGTKVEIKR	6.29
TBP5 (TBD5 Fab-hIgG4PAA Fc) (antibody, V domains shown, Fab-Fc format, one HC and one LC) VH: EVQLVESGGGLVQPGGSLRLSCAASGFTFRTYWMHWVRQAPGKGLLWVSRINGDGSRTNYADSVKGRFTISRDNAKKTLYLQMNSLRAEDTAVYFCARSSYAFDVWGQGTMVTVSS VL: DVVMTQTPLSLPVTPGEPASISCRSSQSLLDSDDGSTYLDWYLQKPGQSPQLLIYLLSNRASGVPDRFSGSGSGTVFTLKISSVEAADVGVYYCMQRIEFPLTFGGGTKVEIKR	8.79

Then there is this binder:
# get_value(readout='pEC50', item= TBP3 (TBD3 Fab-hIgG4PAA Fc) (antibody, V domains shown, Fab-Fc format, one HC and one LC) VH: EVQLVESGGGLVKPGGSLRLSCVASGFTFSSYSMNWVRQAPGKGLEWVSSISRSSSYIYYADSVKGRFTISRDNAKNSLYLQMNSLRAEDTAVYYCARIHGYSNSDAFDIWGQGTLVTVSS VL: DIQMTQSPSAMSASVGDRVTITCRASQGISHYLVWFQQKPGKVPKRLIYAASSLQSGVPSRFSGSGSGTEFTLTISSLQPEDFATYYCLQHNSYPRTFGQGTKVEIKR ) 9.82
